# Experimental System: native human M-CSF (in human serum or in MDA-MB-231 conditioned medium) (human), P09603
# Sequence (P09603 33-255): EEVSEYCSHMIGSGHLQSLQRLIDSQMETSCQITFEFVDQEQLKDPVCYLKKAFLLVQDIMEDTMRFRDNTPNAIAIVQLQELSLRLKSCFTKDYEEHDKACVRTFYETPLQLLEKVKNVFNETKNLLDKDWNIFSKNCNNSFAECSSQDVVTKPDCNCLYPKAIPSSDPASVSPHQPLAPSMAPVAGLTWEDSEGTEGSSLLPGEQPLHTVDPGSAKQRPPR
# Experiment: cell-based or functional assay
Readout Kind: IC50, inhibition of M-NFS-60 proliferation induced by MDA-MB-231 conditioned medium (nM)
Numbers only, in nM.

Record excerpt, results attached:
Input line: Request the reported IC50, inhibition of M-NFS-60 proliferation induced by MDA-MB-231 conditioned medium associated with Maelle, IgG1_D265A (antibody, V domains shown) VH: QVQLQQSGPGLVKPSQTLSLTCAISGESVSTSSAAWNWIRQSPSRGLEWLGRTYYRSKWKKEYAQSVKSRITINPDTSKNQFSLQLNSVTPEDTAVYYCARDRYYYSAFDYWGQGTLVTVSS VL: QSALTQPASVSGSPGQSITISCTGTSSDVGGYNSVSWYQQHPGKAPKLIIYAVSNRPSGVSNRFSGSKSGNTASLTISGLQAEDEADYYCASYDERFTRVFGGGTKLTVLGQ
Output line: 0.0989

Input line: How about Meriem, IgG1_D265A (antibody, V domains shown) VH: QVQLQQSGPGLVKPSQTLSLTCAISGDSVSTSSAAWNWIRQSPSRGLEWLGRTYYRSKWKKEYAQSVKSRITINPDTSKNQFSLQLNSVTPEDTAVYYCARDRYYYSAFDYWGQGTLVTVSS VL: QSALTQPASVSGSPGQSITISCTGTSSDVGGYNSVSWYQQHPGKAPKLIIYAVSNRPSGVSNRFSGSKSGNTASLTISGLQAEDEADYYCASYDERFTRVFGGGTKLTVLGQ ?
Output line: 0.0769

Further cases:
Input line: Request the reported IC50, inhibition of M-NFS-60 proliferation induced by MDA-MB-231 conditioned medium associated with Madeleine, IgG1_D265A (antibody, V domains shown) VH: QVQLQQSGPGLVKPSQTLSLTCAISGDSVSSNSAAWNWIRQSPSRGLEWLGRTYYRSKWKKEYAQSVKSRITINPDTSKNQFSLQLNSVTPEDTAVYYCARDRYYYSAFDYWGQGTLVTVSS VL: QSALTQPASVSGSPGQSITISCTGTSSDVGGYNSVSWYQQHPGKAPKLMIYAVSNRPSGVSNRFSGSKSGNTASLTISGLQAEDEADYYCASYDERFTRVFGGGTKLTVLGQ
Output line: 0.0754
